- Tested on: A549
- Run Description: Cytotoxicity against human A549 cells after 48 hrs
- Type: cell-based
- Test Conditions: a549, 48 h
Assay Metric: Activity

compound=CO[C@H]1[C@H](O[C@H]2[C@H](O[C@H]3CC[C@@]4(C)[C@H](C3)[C@@H](O)C[C@@H]3[C@@H]4CC[C@]4(C)[C@@H]5[C@H](C[C@@H]34)O[C@]3(CC[C@@H](C)CO3)[C@H]5C)O[C@H](CO)[C@@H](O[C@@H]3O[C@@H](C)[C@H](O)[C@@H](O)[C@H]3OC)[C@@H]2O)O[C@@H](C)[C@H](O)[C@H]1O assay_metric=Activity val=Non-toxic
compound="C[C@@H]1O[C@@H](O[C@H]2[C@H](O)[C@@H](O[C@@H]3O[C@@H](C)[C@H](O)[C@@H](O)[C@H]3O)C(O)O[C@@H]2CO)[C@H](O)[C@H](O)[C@H]1O (stereo partly drawn)" assay_metric=Activity val=Non-toxic
compound=CO[C@@H]1[C@@H](O[C@@H]2O[C@@H](C)[C@H](O)[C@@H](O)[C@H]2O)[C@H](O[C@H]2CC[C@@]3(C)[C@H](C2)[C@@H](O)C[C@@H]2[C@@H]3CC[C@]3(C)[C@@H]4[C@H](C[C@@H]23)O[C@]2(CC[C@@H](C)CO2)[C@H]4C)O[C@H](CO)[C@H]1O[C@@H]1O[C@@H](C)[C@H](O)[C@@H](O)[C@H]1O assay_metric=Activity val=Non-toxic
